Biological target: biotinylated human IgM (human)
Test: SPR; BIAcore T100, 37 °C, HBS-EP; biotinylated human IgM on streptavidin chip (biotinylated human IgG as reference), gel-filtered monomeric DBL domains injected at 20 μl/min for 2 min to equilibrium; 1:1 Langmuir isotherm
pKd values by entry
Conceptually, pKd converts a concentration in mol/L into minus its log10.

substance	pKd
DBL domain of DBLMSP2 (3D7) (domain or fragment)	6.22

Next substance, please.
Q) Form: Entry = DBL domain of DBLMSP (3D7) (domain or fragment) | System = biotinylated human IgM (human) | pKd = ____
A) 7.22
